# assayed system: Angiotensin II receptor (Rattus norvegicus) (UniProt P29089+P25095+P35351)
# test: Percent inhibition of angiotensin II (0.1 ug/kg iv) -induced pressor response 3h after administration of test compounds (1 mg/kg po) in conscious male Sprague-Dawley rats
# Assay type: functional, organism-based
# inhibition >= 80% gives rule met, anything below gives rule not met

* CCSc1nc2cccc(C(=O)O)c2n1Cc1ccc(-c2ccccc2-c2nsc(O)n2)cc1 | rule met
* CCCc1nc2cccc(C(=O)O)c2n1Cc1ccc(-c2ccccc2-c2nsc(O)n2)cc1 | rule met
* Cc1nc2cccc(C(=O)O)c2n1Cc1ccc(-c2ccccc2-c2noc(S)n2)cc1 | rule not met
* COc1nc2cccc(C(=O)O)c2n1Cc1ccc(-c2ccccc2-c2nsc(O)n2)cc1 | rule met
* CCCCc1nc2cccc(C(=O)OC)c2n1Cc1ccc(-c2ccccc2-c2nsc(O)n2)cc1 | rule met
* CCCCc1nc2cccc(C(=O)O)c2n1Cc1ccc(-c2ccccc2-c2noc(O)n2)cc1 | rule not met
* CCOc1nc2cccc(C(=O)OC)c2n1Cc1ccc(-c2ccccc2-c2noc(S)n2)cc1 | rule met
* CNc1nc2cccc(C(=O)O)c2n1Cc1ccc(-c2ccccc2-c2nsc(O)n2)cc1 | rule not met
* CCOc1nc2cccc(C(=O)OC)c2n1Cc1ccc(-c2ccccc2-c2nsc(O)n2)cc1 | rule met
